Tested on: Candida albicans
test.summary: Antimicrobial activity against Candida albicans ATCC 10231 after 24 to 48 hrs
Format: functional
readout.type: MIC (mg/L)

molecule	recorded.number
O=[N+]([O-])c1ccc2nc(-c3ccc(F)cc3)oc2c1	50
OC(Cn1cncn1)(Cn1cncn1)c1ccc(F)cc1F [FLUCONAZOLE]	1
C[C@@H]1[C@H](O)[C@@H](C)/C=C/C=C/C=C/C=C/C=C/C=C/C=C/[C@H](O[C@@H]2O[C@H](C)[C@@H](O)[C@H](N)[C@@H]2O)C[C@@H]2O[C@](O)(C[C@@H](O)C[C@@H](O)[C@H](O)CC[C@@H](O)C[C@@H](O)CC(=O)O[C@H]1C)C[C@H](O)[C@H]2C(=O)O [AMPHOTERICIN B]	1

---

Tested on: Candida albicans
test.summary: Antimicrobial activity against Candida albicans ATCC 10231 after 24 to 48 hrs
Assay type: functional

smiles.entry	MIC [µg/mL]
Nc1ccc2oc(Cc3ccc(F)cc3)nc2c1	100
CCc1ccc(-c2nc3cc([N+](=O)[O-])ccc3o2)cc1	50
CCc1ccc(-c2nc3ccc([N+](=O)[O-])cc3o2)cc1	50
O=[N+]([O-])c1ccc2nc(Cc3ccc(F)cc3)oc2c1	100
Nc1ccc2nc(Cc3ccc(Cl)cc3)oc2c1	50

---

Below, each of the compounds is paired with its reported MIC value.
System: Candida albicans
test.summary: Antimicrobial activity against multidrug-resistant Candida albicans isolates after 24 to 48 hrs
Type: functional

smiles.entry	system.name	quantity.unit	MIC
C[C@@H]1[C@H](O)[C@@H](C)/C=C/C=C/C=C/C=C/C=C/C=C/C=C/[C@H](O[C@@H]2O[C@H](C)[C@@H](O)[C@H](N)[C@@H]2O)C[C@@H]2O[C@](O)(C[C@@H](O)C[C@@H](O)[C@H](O)CC[C@@H](O)C[C@@H](O)CC(=O)O[C@H]1C)C[C@H](O)[C@H]2C(=O)O	Candida albicans	µg/mL	1
CCc1ccc(-c2nc3cc([N+](=O)[O-])ccc3o2)cc1	Candida albicans	µg/mL	100
Nc1ccc2oc(-c3ccccc3)nc2c1	Candida albicans	µg/mL	50
O=[N+]([O-])c1ccc2nc(-c3ccc(Br)cc3)oc2c1	Candida albicans	µg/mL	50
O=[N+]([O-])c1ccc2nc(Cc3ccc(F)cc3)oc2c1	Candida albicans	µg/mL	50
Cc1ccc(Cc2nc3cc(N)ccc3o2)cc1	Candida albicans	µg/mL	50
O=[N+]([O-])c1ccc2oc(-c3ccccc3)nc2c1	Candida albicans	µg/mL	50
Nc1ccc2oc(Cc3ccc(F)cc3)nc2c1	Candida albicans	µg/mL	50
CC(C)(C)c1ccc(-c2nc3ccc([N+](=O)[O-])cc3o2)cc1	Candida albicans	µg/mL	100

---

Below, each of the compounds is paired with its reported MIC value.
Tested on: Escherichia coli
test.summary: Antimicrobial activity against Escherichia coli ATCC 25922 after 24 hrs
Format: functional
experimental.conditions: ATCC 25922, 24 h

compound	MIC (µg/mL)
CCc1ccc(-c2nc3cc([N+](=O)[O-])ccc3o2)cc1	50
Nc1ccc2nc(Cc3ccc(Br)cc3)oc2c1	50
O=[N+]([O-])c1ccc2nc(-c3ccc(F)cc3)oc2c1	50
Nc1ccc2nc(Cc3ccc(F)cc3)oc2c1	50
Cc1ccc(Cc2nc3cc([N+](=O)[O-])ccc3o2)cc1	50
CCc1ccc(-c2nc3ccc(N)cc3o2)cc1	50
CC1(C)S[C@@H]2[C@H](NC(=O)[C@H](N)c3ccccc3)C(=O)N2[C@H]1C(=O)O.O.O.O [AMPICILLIN TRIHYDRATE]	8
O=[N+]([O-])c1ccc2oc(-c3ccc(F)cc3)nc2c1	50
O=[N+]([O-])c1ccc2nc(-c3ccccc3)oc2c1	50
Nc1ccc2nc(-c3ccc(Br)cc3)oc2c1	50
CC1COc2c(N3CCN(C)CC3)c(F)cc3c(=O)c(C(=O)O)cn1c23 (stereo unspecified)	0.125

---

System: Candida albicans
test.summary: Antimicrobial activity against multidrug-resistant Candida albicans isolates after 24 to 48 hrs
Assay type: functional
Below, each of the compounds is paired with its reported MIC value.

smiles.entry	system.name	quantity.unit	MIC
Nc1ccc2nc(Cc3ccc(Cl)cc3)oc2c1	Candida albicans	µg/mL	50
O=[N+]([O-])c1ccc2nc(-c3ccccc3)oc2c1	Candida albicans	µg/mL	50
CCc1ccc(-c2nc3ccc([N+](=O)[O-])cc3o2)cc1	Candida albicans	µg/mL	100
O=[N+]([O-])c1ccc2nc(Cc3ccc(Br)cc3)oc2c1	Candida albicans	µg/mL	100
CCc1ccc(-c2nc3ccc(N)cc3o2)cc1	Candida albicans	µg/mL	50
O=[N+]([O-])c1ccc2nc(Cc3ccc(Cl)cc3)oc2c1	Candida albicans	µg/mL	50

---

Tested on: Candida albicans
test.summary: Antimicrobial activity against Candida albicans ATCC 10231 after 24 to 48 hrs
Type: functional
Below, each of the compounds is paired with its reported MIC value.

smiles.entry	system.name	quantity.unit	MIC
O=[N+]([O-])c1ccc2nc(Cc3ccc(Cl)cc3)oc2c1	Candida albicans	µg/mL	100
Nc1ccc2nc(Cc3ccc(Br)cc3)oc2c1	Candida albicans	µg/mL	50
O=[N+]([O-])c1ccc2oc(-c3ccc(F)cc3)nc2c1	Candida albicans	µg/mL	50
CCc1ccc(-c2nc3cc(N)ccc3o2)cc1	Candida albicans	µg/mL	50
O=[N+]([O-])c1ccc2nc(-c3ccc(Br)cc3)oc2c1	Candida albicans	µg/mL	100
CC(C)(C)c1ccc(-c2nc3ccc([N+](=O)[O-])cc3o2)cc1	Candida albicans	µg/mL	50
Cc1ccc(Cc2nc3cc(N)ccc3o2)cc1	Candida albicans	µg/mL	100
Cc1ccc(Cc2nc3cc([N+](=O)[O-])ccc3o2)cc1	Candida albicans	µg/mL	50
CC(C)(C)c1ccc(-c2nc3ccc(N)cc3o2)cc1	Candida albicans	µg/mL	50
O=[N+]([O-])c1ccc2nc(-c3ccccc3)oc2c1	Candida albicans	µg/mL	100
O=[N+]([O-])c1ccc2oc(-c3ccccc3)nc2c1	Candida albicans	µg/mL	100
CCc1ccc(-c2nc3ccc(N)cc3o2)cc1	Candida albicans	µg/mL	50

---

Below, each of the compounds is paired with its reported MIC value.
Tested on: Candida albicans
test.summary: Antimicrobial activity against Candida albicans ATCC 10231 after 24 to 48 hrs
Format: functional

smiles.entry	system.name	MIC [µg/mL]
Nc1ccc2nc(-c3ccc(F)cc3)oc2c1	Candida albicans	50
Nc1ccc2nc(Cc3ccc(F)cc3)oc2c1	Candida albicans	50
Nc1ccc2nc(-c3ccc(Br)cc3)oc2c1	Candida albicans	100
Nc1ccc2oc(-c3ccccc3)nc2c1	Candida albicans	100
O=[N+]([O-])c1ccc2nc(Cc3ccc(Br)cc3)oc2c1	Candida albicans	50
Nc1ccc2oc(-c3ccc(F)cc3)nc2c1	Candida albicans	50
O=[N+]([O-])c1ccc2oc(Cc3ccc(F)cc3)nc2c1	Candida albicans	100

---

Test system: Candida albicans
test.summary: Antimicrobial activity against multidrug-resistant Candida albicans isolates after 24 to 48 hrs
Format: functional
Below, each of the compounds is paired with its reported MIC value.
readout.type: MIC (µg/mL)

smiles.entry	recorded.number
CCc1ccc(-c2nc3cc(N)ccc3o2)cc1	50
O=[N+]([O-])c1ccc2oc(-c3ccc(F)cc3)nc2c1	100
OC(Cn1cncn1)(Cn1cncn1)c1ccc(F)cc1F	64
O=[N+]([O-])c1ccc2oc(Cc3ccc(F)cc3)nc2c1	50
Nc1ccc2nc(-c3ccc(F)cc3)oc2c1	50

---

Tested on: Candida albicans
test.summary: Antimicrobial activity against multidrug-resistant Candida albicans isolates after 24 to 48 hrs
Format: functional
Below, each of the molecules is paired with its reported MIC value.
readout.type: MIC

smiles.entry	result
CC(C)(C)c1ccc(-c2nc3ccc(N)cc3o2)cc1	50 µg/mL
Nc1ccc2oc(-c3ccc(F)cc3)nc2c1	50 µg/mL
Cc1ccc(Cc2nc3cc([N+](=O)[O-])ccc3o2)cc1	25 µg/mL
Nc1ccc2nc(-c3ccc(Br)cc3)oc2c1	50 µg/mL
Nc1ccc2nc(Cc3ccc(Br)cc3)oc2c1	100 µg/mL
O=[N+]([O-])c1ccc2nc(-c3ccc(F)cc3)oc2c1	100 µg/mL
Nc1ccc2nc(Cc3ccc(F)cc3)oc2c1	50 µg/mL
